- Test system: MS2 coat protein
- test-method-notes: apparent KD of MS2 coat protein; designed switch direction (-1 OFF switch, 1 ON switch): -1; higher = weaker reporter binding
- condition-label: input ligand: none
Kindly supply the reported apparent KD of MS2 coat protein values for the records listed here.
Give bare numbers, in nM.

UGCAUGUGAGGAUAUGGCGCUCGAUUGCGGAAGGAGCGAGUUUAGAAGGUACAUGAGGAUCACCCAUGUCACGU [Eternabot (L2) Solution 97] (Eterna round: R97, puzzle: Exclusion 4) | 25.9
CCAUAUAACUGAGGAUAUAAUCGCCACUGACGUUUAGAAGGCAGACAUGAGGAUCACCCAUGUGAUUUCUCAAUAUUAUACAUC [Prohibition 78 - Jieux - Exclusion NG 1] (Eterna round: R96, puzzle: Exclusion NG 1) | 245
GUUUCACAUGAGGAUCACCCAUGUGAGGAUAUGCAUUUGUUAACCGUAGUUAAUAGAUGCAGAAGGCGCGUGAU [JRxlusion 5 - Jieux - Exclusion 1] (Eterna round: R97, puzzle: Exclusion 1) | 65

Report apparent KD of MS2 coat protein for every entry below.
1. UGGUCCCUGAAACAUGAGGAUCACCCAUGUAUAAUGAGGACAAAGGAUAUAUCCCACCAGGUAGGGUAGAAGGUUGAACUCUAC [Eternabot solution 42] (Eterna round: R96, puzzle: Exclusion NG 3)
2. AAUAAGGUAGGAUAUACAUGAGGAUCACCCAUGUCCCACCCGUUACCUAUGACCAUAUGUAGAAGGACCAAUAA [Exy#1] (Eterna round: R97, puzzle: Exclusion 3)
3. AGCUGUGGCCGAGGAUAUCUACAUGAGGAUCACCCAUGUGGGUGAAAUAUCGGGAAAACCUCGAUGGAGAAGGCGGUCUCAGCA [Eli eng2 - 046] (Eterna round: R96, puzzle: Exclusion NG 2)
4. UAAAACCGGUGAGGAUAUUUUUAAUAGAGCUUUAUGAUAUACAUGAGGAUCACCCAUGUUACGUUAAAGAAGGCAUCGGAAAAU [Mat - Exclusion NG 2 - Mod of JL - D99] (Eterna round: R96, puzzle: Exclusion NG 2)
5. UGAAGGUCAGGAUAUGAGUCUAUCUGACGCAGACAUAGACAUUAGAAGGGACAUGAGGAUCACCCAUGUGGGAC [Eternabot (L1) Solution 29] (Eterna round: R97, puzzle: Exclusion 4)
6. UCUCAGUUAGGAUAUUUAAUGUGCCGUGAGGACACGCCUUUGAAGAAGGGACAUGAGGAUCACCCAUGUGAGUA [Eternabot (L2) Solution 44] (Eterna round: R97, puzzle: Exclusion 4)

Result:
16.2
21.3
263
19.9
84.8
26.3
